test system: V12 5725 (Wales) Klebsiella pneumoniae; assay: MIC assay, CAMHB with alginate oligomer, no visible growth; assay type: cell-based; conditions: Table 5; V12 MDR Kleb pneu; OligoCF-5/20 +6% G
Marks after values point to notes of the source that are not given here.
Reported MIC values are given for each entry in this list.
quantityName: MIC

> print(dat)
                                querysmiles   assayvalue
1  C[C@H]1[C@H](NC(=O)/C(=N\OC(C)(C)C(=O)O)c2csc(N)n2)C(=O)N1S(=O)(=O)O  128^† μg/ml
2  C[C@@H](O)[C@H]1C(=O)N2C(C(=O)O)=C(S[C@@H]3CN[C@H](C(=O)N(C)C)C3)[C@H](C)[C@H]12  <0.25 µg/mL
3  CC(C)(O/N=C(\C(=O)N[C@@H]1C(=O)N2C(C(=O)[O-])=C(C[n+]3ccccc3)CS[C@H]12)c1csc(N)n1)C(=O)O   16^† μg/ml

* * *

system: Pseudomonas aeruginosa ATCC 39324, mucoid type strain (R79); test: MIC assay, CAMHB with alginate oligomer, no visible growth; format: cell-based; settings: Pseudomonas aeruginosa, ATCC39324, Table 1; R79; OligoCF-5/20 +2% G; read-out: MIC
Reported MIC values are given for each entry in this list.

querySmiles	targetOrSystem	endpointUnit	valueModifier	MIC
CN(C)[C@@H]1C(O)=C(C(N)=O)C(=O)[C@@]2(O)C(O)=C3C(=O)c4c(O)cccc4[C@@](C)(O)[C@H]3[C@H](O)[C@@H]12	Pseudomonas aeruginosa ATCC 39324, mucoid type strain (R79)	µg/mL	=	4
C[C@H]1[C@H](NC(=O)/C(=N\OC(C)(C)C(=O)O)c2csc(N)n2)C(=O)N1S(=O)(=O)O	Pseudomonas aeruginosa ATCC 39324, mucoid type strain (R79)	µg/mL	=	2
O=C(O)c1cn(C2CC2)c2cc(N3CCNCC3)c(F)cc2c1=O	Pseudomonas aeruginosa ATCC 39324, mucoid type strain (R79)	µg/mL	=	0.0625
CC(C)(O/N=C(\C(=O)N[C@@H]1C(=O)N2C(C(=O)[O-])=C(C[n+]3ccccc3)CS[C@H]12)c1csc(N)n1)C(=O)O	Pseudomonas aeruginosa ATCC 39324, mucoid type strain (R79)	µg/mL	<	1
CC[C@H]1OC(=O)[C@H](C)[C@@H](O[C@H]2C[C@@](C)(OC)[C@@H](O)[C@H](C)O2)[C@H](C)[C@@H](O[C@@H]2O[C@H](C)C[C@H](N(C)C)[C@H]2O)[C@](C)(O)C[C@@H](C)CN(C)[C@H](C)[C@@H](O)[C@]1(C)O	Pseudomonas aeruginosa ATCC 39324, mucoid type strain (R79)	µg/mL	=	64
C[C@@H](O)[C@H]1C(=O)N2C(C(=O)O)=C(S[C@@H]3CN[C@H](C(=O)N(C)C)C3)[C@H](C)[C@H]12	Pseudomonas aeruginosa ATCC 39324, mucoid type strain (R79)	µg/mL	<	1

* * *

system: strains of Klebsiella pneumoniae displaying MDR phenotypes; assay: MIC-assay, Mueller-Hinton broth with G-block alginate, 384-well, OD600 (Table 10); type: cell-based; conditions: Klebsiella pneumoniae (K3, India, V8) MDR, G-block (OligoCF-5/20) 10%, read-out: MIC
quantityName: MIC (µg/mL)

molecule	targetOrSystem	valueModifier	assayValue
C[C@@H](O)[C@H]1C(=O)N2C(C(=O)O)=C(SCCN=CN)C[C@H]12 [Imipenem]	strains of Klebsiella pneumoniae displaying MDR phenotypes	=	8
O=C(O)c1cn(C2CC2)c2cc(N3CCNCC3)c(F)cc2c1=O [Ciprofloxacin]	strains of Klebsiella pneumoniae displaying MDR phenotypes	>	1020
CN(C)[C@@H]1C(O)=C(C(N)=O)C(=O)[C@@]2(O)C(O)=C3C(=O)c4c(O)cccc4[C@@](C)(O)[C@H]3[C@H](O)[C@@H]12 [Oxytetracycline]	strains of Klebsiella pneumoniae displaying MDR phenotypes	=	1020
CC[C@H]1OC(=O)[C@H](C)[C@@H](O[C@H]2C[C@@](C)(OC)[C@@H](O)[C@H](C)O2)[C@H](C)[C@@H](O[C@@H]2O[C@H](C)C[C@H](N(C)C)[C@H]2O)[C@](C)(O)C[C@@H](C)CN(C)[C@H](C)[C@@H](O)[C@]1(C)O [Azithromycin]	strains of Klebsiella pneumoniae displaying MDR phenotypes	=	16
CC[C@H]1OC(=O)[C@H](C)[C@@H](O[C@H]2C[C@@](C)(OC)[C@@H](O)[C@H](C)O2)[C@H](C)[C@@H](O[C@@H]2O[C@H](C)C[C@H](N(C)C)[C@H]2O)[C@](C)(O)C[C@@H](C)/C(=N\OCOCCOC)[C@H](C)[C@@H](O)[C@]1(C)O [Roxithromycin]	strains of Klebsiella pneumoniae displaying MDR phenotypes	>	1020
CC(C)(O/N=C(\C(=O)N[C@@H]1C(=O)N2C(C(=O)[O-])=C(C[n+]3ccccc3)CS[C@H]12)c1csc(N)n1)C(=O)O [Ceftazidime]	strains of Klebsiella pneumoniae displaying MDR phenotypes	>	1020
CC[C@H]1OC(=O)[C@H](C)[C@@H](O[C@H]2C[C@@](C)(OC)[C@@H](O)[C@H](C)O2)[C@H](C)[C@@H](O[C@@H]2O[C@H](C)C[C@H](N(C)C)[C@H]2O)[C@](C)(O)C[C@@H](C)[C@@H]2N[C@@H](COCCOC)O[C@H]([C@H]2C)[C@]1(C)O [Dirithromycin]	strains of Klebsiella pneumoniae displaying MDR phenotypes	=	128

* * *

system: Pseudomonas aeruginosa CFA 24-1, clinical mucoid strain (R80); experiment: MIC assay, CAMHB with alginate oligomer, no visible growth; format: cell-based; details: Pseudomonas aeruginosa, Table 1; R80; OligoCF-5/20 0G; read-out: MIC

molecule	endpointUnit	valueModifier	MIC
CC(C)(O/N=C(\C(=O)N[C@@H]1C(=O)N2C(C(=O)[O-])=C(C[n+]3ccccc3)CS[C@H]12)c1csc(N)n1)C(=O)O [Ceftazidime]	µg/mL	<	1
C[C@@H](O)[C@H]1C(=O)N2C(C(=O)O)=C(S[C@@H]3CN[C@H](C(=O)N(C)C)C3)[C@H](C)[C@H]12 [Meropenem]	µg/mL	<	1
CN(C)[C@@H]1C(O)=C(C(N)=O)C(=O)[C@@]2(O)C(O)=C3C(=O)c4c(O)cccc4[C@@](C)(O)[C@H]3[C@H](O)[C@@H]12 [Oxytetracycline]	µg/mL	=	8
CC[C@H]1OC(=O)[C@H](C)[C@@H](O[C@H]2C[C@@](C)(OC)[C@@H](O)[C@H](C)O2)[C@H](C)[C@@H](O[C@@H]2O[C@H](C)C[C@H](N(C)C)[C@H]2O)[C@](C)(O)C[C@@H](C)CN(C)[C@H](C)[C@@H](O)[C@]1(C)O [Azithromycin]	µg/mL	=	256
C[C@H]1[C@H](NC(=O)/C(=N\OC(C)(C)C(=O)O)c2csc(N)n2)C(=O)N1S(=O)(=O)O [Aztreonam]	µg/mL	<	1

* * *

test system: V23 1322 Burkholderia cepacia; assay: MIC assay, CAMHB with alginate oligomer, no visible growth; format: cell-based; settings: Burkholderia cepacia, Table 6; V23; Experiment 1 (18-03-10); OligoCF-5/20 0G; read-out: MIC
quantityName: MIC (µg/mL)

querySmiles	endpointUnit	valueModifier	assayValue
CC(C)(O/N=C(\C(=O)N[C@@H]1C(=O)N2C(C(=O)[O-])=C(C[n+]3ccccc3)CS[C@H]12)c1csc(N)n1)C(=O)O	µg/mL	=	128
CC[C@H]1OC(=O)[C@H](C)[C@@H](O[C@H]2C[C@@](C)(OC)[C@@H](O)[C@H](C)O2)[C@H](C)[C@@H](O[C@@H]2O[C@H](C)C[C@H](N(C)C)[C@H]2O)[C@](C)(O)C[C@@H](C)C(=O)[C@H](C)[C@@H](O)[C@]1(C)O	µg/mL	=	512
CN(C)[C@@H]1C(O)=C(C(N)=O)C(=O)[C@@]2(O)C(O)=C3C(=O)c4c(O)cccc4[C@@](C)(O)[C@H]3[C@H](O)[C@@H]12	µg/mL	>	256
CC[C@H]1OC(=O)[C@H](C)[C@@H](O[C@H]2C[C@@](C)(OC)[C@@H](O)[C@H](C)O2)[C@H](C)[C@@H](O[C@@H]2O[C@H](C)C[C@H](N(C)C)[C@H]2O)[C@](C)(O)C[C@@H](C)CN(C)[C@H](C)[C@@H](O)[C@]1(C)O	µg/mL	=	64
C[C@H]1[C@H](NC(=O)/C(=N\OC(C)(C)C(=O)O)c2csc(N)n2)C(=O)N1S(=O)(=O)O	µg/mL	>	4100

* * *

system: Pseudomonas aeruginosa CFA 24-1, clinical mucoid strain (R80); assay: MIC assay, CAMHB with alginate oligomer, no visible growth; type: cell-based; conditions: Pseudomonas aeruginosa, Table 1; R80; OligoCF-5/20 +2% G; read-out: MIC
Reported MIC values are given for each entry in this list.

querySmiles	endpointUnit	valueModifier	MIC
CC(C)(O/N=C(\C(=O)N[C@@H]1C(=O)N2C(C(=O)[O-])=C(C[n+]3ccccc3)CS[C@H]12)c1csc(N)n1)C(=O)O	µg/mL	<	1
C[C@@H](O)[C@H]1C(=O)N2C(C(=O)O)=C(S[C@@H]3CN[C@H](C(=O)N(C)C)C3)[C@H](C)[C@H]12	µg/mL	<	1
C[C@H]1[C@H](NC(=O)/C(=N\OC(C)(C)C(=O)O)c2csc(N)n2)C(=O)N1S(=O)(=O)O	µg/mL	<	1
CN(C)[C@@H]1C(O)=C(C(N)=O)C(=O)[C@@]2(O)C(O)=C3C(=O)c4c(O)cccc4[C@@](C)(O)[C@H]3[C@H](O)[C@@H]12	µg/mL	=	8
CC[C@H]1OC(=O)[C@H](C)[C@@H](O[C@H]2C[C@@](C)(OC)[C@@H](O)[C@H](C)O2)[C@H](C)[C@@H](O[C@@H]2O[C@H](C)C[C@H](N(C)C)[C@H]2O)[C@](C)(O)C[C@@H](C)CN(C)[C@H](C)[C@@H](O)[C@]1(C)O	µg/mL	=	128
